organism: Canis familiaris; experiment: Inotropic selectivity was assessed by normalizing changes in heart rate to the 50% levels in mongrel dogs; format: functional, Canis lupus familiaris
Consider the following compounds and their measured Delta HR readings.
readoutKind: Delta HR (beats min-1)

> print(dat)
                                   compound  readoutkind  unitofmeasurement  experimentalvalue
1  CC(Cc1ccc(O)c(O)c1)NC1CCc2cc(O)c(O)cc2C1 (configuration not stated)     Delta HR        beats min-1                 -5
2  CC(Cc1ccc(O)c(O)c1)NCCc1ccc(O)c(O)c1 (configuration not stated)     Delta HR        beats min-1                 26
3  COc1ccc(CC(C)NCCc2ccc(O)c(O)c2)cc1OC (configuration not stated)     Delta HR        beats min-1                 10
4  CC(Cc1ccc(O)cc1)NC1CCc2cc(O)c(O)cc2C1 (configuration not stated)     Delta HR        beats min-1                 23
5  Oc1cc2c(cc1O)CC(NC1CCc3c(ccc(O)c3O)C1)CC2 (configuration not stated)     Delta HR        beats min-1                 24
6  Oc1cc2c(cc1O)CC(NC1CCc3cc(O)c(O)cc3C1)CC2 (configuration not stated)     Delta HR        beats min-1                 31
7  CC(Cc1ccc(O)c(O)c1)NC1CCc2cc(O)ccc2C1 (configuration not stated)     Delta HR        beats min-1                 30
